Each entry below carries its reported Kd.
assayTarget: UniProt:P35222
testSummary: KD50 measurement using competitive fluorescence polarization (FP) with labelled TCF4
Assay type: binding
reportedConditions: fluorescence polarization, β-catenin; read-out: β-Cat FP KD
Where a SMILES comes first, the peptide text is derived from it.
valueType: Kd

>  <molecule>
CC(C)C[C@@H]1NC(=O)[C@H](Cc2ccccc2)NC(=O)[C@H](Cc2c[nH]c3ccccc23)NC(=O)[C@@H](N)CCCCNC(=O)CC[C@@H](C(=O)N[C@@H](CO)C(=O)N[C@@H](Cc2ccccc2)C(=O)N[C@@H](Cc2c[nH]c3ccccc23)C(=O)NCC(=O)O)NC1=O [compound 231] (HELM PEPTIDE1{K.W.F.L.E.S.F.W.G}$PEPTIDE1,PEPTIDE1,1:R3-5:R3$$$V2.0)

>  <assayTarget>
UniProt:P35222

>  <valueObserved>
1 to 10 µM

$$$$
>  <molecule>
CC[C@H](C)[C@H](NC(=O)[C@H](CC(C)C)NC(=O)[C@H](Cc1ccccc1)NC(=O)[C@H](Cc1c[nH]c2ccccc12)NC(=O)[C@H](Cc1c[nH]c2ccccc12)NC(=O)[C@H](CCCNC(=N)N)NC(=O)[C@H](CO)NC(=O)[C@@H](N)CCSC)C(=O)N[C@@H](CO)C(=O)N[C@@H](Cc1ccccc1)C(=O)N[C@@H](Cc1c[nH]c2ccccc12)C(N)=O [compound 78] (H-MSRWWFLISFW-NH2)

>  <assayTarget>
UniProt:P35222

>  <valueObserved>
> 30 µM

$$$$
>  <molecule>
CC[C@H](C)[C@H](NC(=O)[C@H](CC(C)C)NC(=O)[C@H](Cc1ccccc1)NC(=O)[C@H](Cc1c[nH]c2ccccc12)N(C)C(=O)[C@H](CCSC)NC(=O)[C@H](CCCNC(=N)N)NC(=O)[C@@H](NC(=O)[C@@H](N)CCSC)[C@@H](C)CC)C(=O)N[C@@H](CO)C(=O)N[C@@H](Cc1ccccc1)C(=O)N[C@@H](Cc1c[nH]c2ccccc12)C(=O)NCC(=O)O [compound 53] (HELM PEPTIDE1{M.I.R.M.[meW].F.L.I.S.F.W.G}$$$$V2.0)

>  <assayTarget>
UniProt:P35222

>  <valueObserved>
> 30 µM

$$$$
>  <molecule>
CC[C@H](C)[C@H](NC(=O)[C@H](CC(C)C)NC(=O)[C@H](Cc1ccccc1)NC(=O)[C@H](Cc1c[nH]c2ccccc12)NC(=O)[C@H](CCSC)NC(=O)[C@H](CCCNC(=N)N)NC(=O)[C@H](CO)NC(=O)[C@@H](N)Cc1c[nH]cn1)C(=O)N[C@@H](CO)C(=O)N[C@@H](Cc1ccccc1)C(=O)N[C@@H](Cc1c[nH]c2ccccc12)C(N)=O [compound 89] (H-HSRMWFLISFW-NH2)

>  <assayTarget>
UniProt:P35222

>  <valueObserved>
> 30 µM

$$$$
>  <molecule>
CC[C@H](C)[C@H](NC(=O)[C@H](CC(C)C)NC(=O)[C@H](Cc1ccccc1)NC(=O)[C@H](CC(C)C)NC(=O)[C@H](CCSC)NC(=O)[C@H](CCCNC(=N)N)NC(=O)[C@H](CO)NC(=O)[C@@H](N)CCSC)C(=O)N[C@@H](CO)C(=O)N[C@@H](Cc1ccccc1)C(=O)N[C@@H](Cc1c[nH]c2ccccc12)C(=O)NCC(=O)O [compound 52] (H-MSRMLFLISFWG-OH)

>  <assayTarget>
UniProt:P35222

>  <valueObserved>
> 30 µM

$$$$
>  <molecule>
CC[C@H](C)[C@H](NC(=O)[C@H](CC(C)C)NC(=O)[C@H](Cc1ccccc1)NC(=O)[C@H](Cc1c[nH]c2ccccc12)NC(=O)[C@@H](N)CCSC)C(=O)N[C@@H](CS)C(=O)N[C@@H](Cc1ccccc1)C(=O)N[C@@H](Cc1c[nH]c2ccccc12)C(=O)NCC(=O)O [compound 154] (H-MWFLICFWG-OH)

>  <assayTarget>
UniProt:P35222

>  <valueObserved>
> 30 µM

$$$$
>  <molecule>
CC[C@H](C)[C@H](NC(=O)[C@H](Cc1c[nH]c2ccccc12)NC(=O)[C@@H](N)CCSC)C(=O)N[C@@H](CC(C)C)C(=O)N[C@H](C(=O)N[C@@H](C(=O)N[C@@H](Cc1ccccc1)C(=O)N[C@@H](Cc1c[nH]c2ccccc12)C(=O)NCC(=O)O)[C@H](C)O)[C@@H](C)CC [compound 137] (HELM PEPTIDE1{M.W.I.L.I.[dT].F.W.G}$$$$V2.0)

>  <assayTarget>
UniProt:P35222

>  <valueObserved>
0.4 to 1 µM

$$$$
>  <molecule>
CC[C@H](C)[C@H](NC(=O)[C@H](CC(C)C)NC(=O)[C@H](Cc1ccccc1)NC(=O)[C@@H](N)Cc1c[nH]c2ccccc12)C(=O)N[C@@H](CO)C(=O)N[C@@H](Cc1ccccc1)C(=O)N[C@@H](Cc1c[nH]c2ccccc12)C(=O)O [compound 110] (H-WFLISFW-OH)

>  <assayTarget>
UniProt:P35222

>  <valueObserved>
1 to 10 µM

$$$$
>  <molecule>
CC[C@H](C)[C@H](NC(=O)[C@H](CC(C)C)NC(=O)[C@H](Cc1ccccc1)NC(=O)[C@H](Cc1c[nH]c2ccccc12)NC(=O)[C@@H](N)CCSC)C(=O)N[C@@H](CO)C(=O)N[C@@H](C)C(=O)N[C@@H](Cc1c[nH]c2ccccc12)C(=O)NCC(=O)O [compound 9] (H-MWFLISAWG-OH)

>  <assayTarget>
UniProt:P35222

>  <valueObserved>
1 to 10 µM

$$$$
>  <molecule>
CC[C@H](C)[C@H](NC(=O)[C@H](CC(C)C)NC(=O)[C@@H](NC(=O)[C@H](Cc1c[nH]c2ccccc12)NC(=O)[C@H](CCSC)NC(C)=O)C1CCCCC1)C(=O)N[C@@H](CO)C(=O)N[C@@H](Cc1ccccc1)C(=O)N[C@@H](Cc1c[nH]c2ccccc12)C(=O)NCC(=O)O [compound 217] (HELM PEPTIDE1{[ac].M.W.[O=C([C@@H](N[*:1])C1CCCCC1)[*:2]].L.I.S.F.W.G}$$$$V2.0)

>  <assayTarget>
UniProt:P35222

>  <valueObserved>
< 0.4 µM

$$$$
>  <molecule>
CC[C@H](C)[C@H](NC(=O)[C@H](CC(C)C)NC(=O)[C@H](Cc1ccccc1)NC(=O)[C@H](Cc1c[nH]c2ccccc12)NC(=O)[C@H](CCSC)NC(=O)[C@H](CCCNC(=N)N)NC(=O)[C@H](CO)NC(=O)[C@@H](N)CCSC)C(=O)N[C@@H](CO)C(=O)N[C@@H](CO)C(=O)N[C@@H](Cc1c[nH]c2ccccc12)C(=O)O [compound 99] (H-MSRMWFLISSW-OH)

>  <assayTarget>
UniProt:P35222

>  <valueObserved>
1 to 10 µM

$$$$

---

Each entry below carries its reported pKd.
assayTarget: β-catenin (Homo sapiens, UniProt P35222)
Sequence (P35222 whole entry): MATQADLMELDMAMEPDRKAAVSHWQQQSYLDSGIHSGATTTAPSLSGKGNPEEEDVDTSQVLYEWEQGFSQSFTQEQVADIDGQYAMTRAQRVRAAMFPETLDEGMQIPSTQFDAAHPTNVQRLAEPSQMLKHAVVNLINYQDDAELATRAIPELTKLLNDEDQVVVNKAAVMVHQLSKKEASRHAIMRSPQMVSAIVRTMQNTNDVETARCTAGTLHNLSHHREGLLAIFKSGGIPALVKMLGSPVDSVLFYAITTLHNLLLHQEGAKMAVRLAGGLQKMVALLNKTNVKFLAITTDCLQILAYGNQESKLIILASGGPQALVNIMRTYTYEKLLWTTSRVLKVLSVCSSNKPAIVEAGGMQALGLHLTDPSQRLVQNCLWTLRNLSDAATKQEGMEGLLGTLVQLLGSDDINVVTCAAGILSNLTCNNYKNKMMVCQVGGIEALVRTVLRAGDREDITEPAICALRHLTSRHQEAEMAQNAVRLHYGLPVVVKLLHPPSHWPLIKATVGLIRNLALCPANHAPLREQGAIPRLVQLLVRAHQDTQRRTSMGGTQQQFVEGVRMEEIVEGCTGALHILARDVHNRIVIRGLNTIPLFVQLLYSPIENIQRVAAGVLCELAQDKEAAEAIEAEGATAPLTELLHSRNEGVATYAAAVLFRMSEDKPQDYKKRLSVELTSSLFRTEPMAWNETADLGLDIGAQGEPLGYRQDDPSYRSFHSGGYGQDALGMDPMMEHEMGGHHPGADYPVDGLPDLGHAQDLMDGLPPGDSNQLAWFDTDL
testSummary: KD50 measurement using competitive fluorescence polarization (FP) with labelled TCF4
Format: binding
reportedConditions: fluorescence polarization, β-catenin; read-out: β-Cat FP KD
pKd: −log10 of the molar value. Where a SMILES comes first, the peptide text is derived from it.
valueType: pKd

>  <compound>
CC[C@H](C)[C@H](NC(=O)[C@H](CC(C)C)NC(=O)[C@H](Cc1ccccc1)NC(=O)[C@H](Cc1c[nH]c2ccccc12)NC(=O)[C@@H](N)CCSC)C(=O)N[C@@H](CO)C(=O)N[C@@H](Cc1ccccc1)C(=O)N[C@@H](C)C(=O)NCC(=O)O [compound 8] (H-MWFLISFAG-OH)

>  <valueType>
pKd

>  <valueObserved>
5.00 to 6.00

$$$$
>  <compound>
CC[C@H](C)[C@H](NC(=O)[C@H](CC(C)C)NC(=O)[C@H](Cc1ccccc1)NC(=O)[C@H](Cc1c[nH]c2ccccc12)NC(=O)[C@@H](N)CCSC)C(=O)N[C@@H](CO)C(=O)N[C@@H](Cc1ccccc1)C(=O)N[C@@H](Cc1c[nH]c2ccccc12)C(=O)N[C@@H](CCC(=O)O)C(=O)NCC(=O)O [compound 47] (H-MWFLISFWEG-OH)

>  <valueType>
pKd

>  <valueObserved>
6.00 to 6.40

$$$$
>  <compound>
CC[C@H](C)[C@H](NC(=O)[C@H](CC(C)C)NC(=O)[C@H](Cc1ccccc1)NC(=O)[C@H](Cc1c[nH]c2ccccc12)NC(=O)[C@H](CCSC)NC(=O)[C@H](CCCNC(=N)N)NC(=O)[C@H](CC(N)=O)NC(=O)[C@@H](N)CCSC)C(=O)N[C@@H](CO)C(=O)N[C@@H](Cc1ccccc1)C(=O)N[C@@H](Cc1c[nH]c2ccccc12)C(=O)NCC(=O)O [compound 61] (H-MNRMWFLISFWG-OH)

>  <valueType>
pKd

>  <valueObserved>
< 4.52

$$$$
>  <compound>
CC[C@H](C)[C@H](NC(=O)[C@H](CC(C)C)NC(=O)[C@@H](NC(=O)[C@H](Cc1c[nH]c2ccccc12)NC(=O)[C@H](CCSC)NC(=O)C(C)(C)C)[C@@H](C)CC)C(=O)N[C@@H](CO)C(=O)N[C@@H](Cc1ccccc1)C(=O)N[C@@H](Cc1c[nH]c2ccccc12)C(=O)NCC(=O)O [compound 225] (HELM PEPTIDE1{[CC(C)(C)C(=O)[*:2]].M.W.I.L.I.S.F.W.G}$$$$V2.0)

>  <valueType>
pKd

>  <valueObserved>
6.00 to 6.40

$$$$
>  <compound>
CC[C@H](C)[C@H](NC(=O)[C@H](CC(C)C)NC(=O)[C@@H](NC(=O)[C@H](Cc1c[nH]c2ccccc12)NC(=O)[C@H](CCSC)NC(=O)[C@@H](N)Cc1c[nH]cn1)[C@@H](C)CC)C(=O)N[C@@H](CS)C(=O)N[C@@H](Cc1ccccc1)C(=O)N[C@@H](Cc1c[nH]c2ccccc12)C(=O)NCC(=O)O [compound 114] (H-HMWILICFWG-OH)

>  <valueType>
pKd

>  <valueObserved>
5.00 to 6.00

$$$$
>  <compound>
CC[C@H](C)[C@H](NC(=O)[C@H](CC(C)C)NC(=O)[C@H](Cc1ccccc1)NC(=O)[C@H](Cc1c[nH]c2ccccc12)NC(=O)[C@@H](N)CCSC)C(=O)N[C@@H](C)C(=O)N[C@@H](Cc1ccccc1)C(=O)N[C@@H](Cc1c[nH]c2ccccc12)C(=O)NCC(=O)O [compound 10] (H-MWFLIAFWG-OH)

>  <valueType>
pKd

>  <valueObserved>
5.00 to 6.00

$$$$
>  <compound>
CSCC[C@H](NC(=O)[C@H](CCCNC(=N)N)NC(=O)[C@H](CO)NC(=O)[C@@H](N)CCSC)C(=O)N[C@@H](Cc1c[nH]c2ccccc12)C(=O)N[C@@H](Cc1ccccc1)C(=O)N[C@@H](CC(C)C)C(=O)N[C@H](C(=O)N[C@@H](CO)C(=O)N[C@@H](Cc1ccccc1)C(=O)N[C@@H](Cc1c[nH]c2ccccc12)C(=O)NCC(=O)O)C(C)C [compound 56] (H-MSRMWFLVSFWG-OH)

>  <valueType>
pKd

>  <valueObserved>
< 4.52

$$$$
>  <compound>
CC[C@H](C)[C@H](NC(=O)[C@H](CC(C)C)NC(=O)[C@H](Cc1ccccc1)NC(=O)[C@H](Cc1c[nH]c2ccccc12)NC(=O)[C@H](CCSC)NC(=O)[C@H](CCCNC(=N)N)NC(=O)[C@H](CO)NC(=O)[C@@H](N)CCSC)C(=O)N[C@@H](CO)C(=O)N[C@@H](Cc1ccccc1)C(=O)N[C@@H](Cc1c[nH]c2ccccc12)C(=O)N[C@@H](CCCNC(=N)N)C(=O)NCC(=O)O [compound 58] (H-MSRMWFLISFWRG-OH)

>  <valueType>
pKd

>  <valueObserved>
< 4.52

$$$$
>  <compound>
CC[C@H](C)[C@H](NC(=O)[C@H](CC(C)C)NC(=O)[C@H](Cc1c[nH]c2ccccc12)NC(=O)[C@H](Cc1c[nH]c2ccccc12)NC(=O)[C@H](CCSC)NC(=O)[C@H](CCCNC(=N)N)NC(=O)[C@H](CO)NC(=O)[C@@H](N)CCSC)C(=O)N[C@@H](CO)C(=O)N[C@@H](Cc1ccccc1)C(=O)N[C@@H](Cc1c[nH]c2ccccc12)C(N)=O [compound 80] (H-MSRMWWLISFW-NH2)

>  <valueType>
pKd

>  <valueObserved>
< 4.52

$$$$
>  <compound>
CC[C@H](C)[C@H](NC(=O)[C@H](CC(C)C)NC(=O)[C@H](Cc1ccccc1)NC(=O)[C@H](Cc1c[nH]c2ccccc12)NC(=O)[C@H](CCSC)NC(=O)[C@H](CCCNC(=N)N)NC(=O)[C@H](CO)NC(=O)[C@@H](N)CCSC)C(=O)N[C@@H](CO)C(=O)N[C@@H](Cc1ccccc1)C(=O)N[C@@H](Cc1c[nH]c2ccccc12)C(N)=O [compound 72] (H-MSRMWFLISFW-NH2)

>  <valueType>
pKd

>  <valueObserved>
< 4.52

$$$$
>  <compound>
CC[C@H](C)[C@H](NC(=O)[C@H](CC(C)C)NC(=O)[C@H](Cc1ccccc1)NC(=O)[C@H](Cc1c[nH]c2ccccc12)NC(=O)[C@@H](N)CCSC)C(=O)N[C@@H](CS)C(=O)N[C@@H](Cc1ccccc1)C(=O)N[C@@H](Cc1c[nH]c2ccccc12)C(=O)NCC(=O)O [compound 42] (H-MWFLICFWG-OH)

>  <valueType>
pKd

>  <valueObserved>
> 6.40

$$$$
